Item-by-item account of pSTAT3 (MFI) in monocytes at 0.0001 µM
Molecular target: T1, IL10Rα and IL2Rγ on human primary cells (CD8 T cells, CD4 T cells, monocytes) (human) (UniProt Q13651)
T1 sequence (looked up) 1: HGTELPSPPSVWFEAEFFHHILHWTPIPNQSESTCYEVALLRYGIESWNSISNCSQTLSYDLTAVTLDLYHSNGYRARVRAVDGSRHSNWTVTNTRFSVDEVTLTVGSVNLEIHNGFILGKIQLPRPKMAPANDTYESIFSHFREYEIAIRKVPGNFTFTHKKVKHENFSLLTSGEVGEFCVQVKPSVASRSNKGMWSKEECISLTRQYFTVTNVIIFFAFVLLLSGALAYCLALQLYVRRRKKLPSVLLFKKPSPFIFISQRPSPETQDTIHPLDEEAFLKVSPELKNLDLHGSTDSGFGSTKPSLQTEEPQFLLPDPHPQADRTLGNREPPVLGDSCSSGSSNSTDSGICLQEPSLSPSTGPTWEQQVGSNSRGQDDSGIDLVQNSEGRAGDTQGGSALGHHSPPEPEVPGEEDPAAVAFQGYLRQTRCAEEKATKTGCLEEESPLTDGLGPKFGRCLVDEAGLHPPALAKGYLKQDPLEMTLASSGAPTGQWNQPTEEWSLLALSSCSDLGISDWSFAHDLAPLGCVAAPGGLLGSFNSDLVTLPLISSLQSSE
T1 sequence (looked up) 2: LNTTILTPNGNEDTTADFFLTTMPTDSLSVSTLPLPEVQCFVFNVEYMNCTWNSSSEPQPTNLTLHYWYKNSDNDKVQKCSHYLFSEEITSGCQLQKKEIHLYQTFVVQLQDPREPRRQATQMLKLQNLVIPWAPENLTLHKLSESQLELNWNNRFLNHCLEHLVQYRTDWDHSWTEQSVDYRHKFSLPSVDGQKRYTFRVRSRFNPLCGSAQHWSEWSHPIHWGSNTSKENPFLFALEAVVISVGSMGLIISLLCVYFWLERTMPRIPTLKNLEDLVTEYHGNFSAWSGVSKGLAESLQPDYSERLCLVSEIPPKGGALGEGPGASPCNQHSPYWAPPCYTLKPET
Assay: cell-based or functional assay
Provide only the numeric value, understood in MFI.

binder: hIL10Ra_VHH14-hIL2Rg_VHH19, linker GGGS, tag his (bispecific antibody, not shown: small tags and cut ends) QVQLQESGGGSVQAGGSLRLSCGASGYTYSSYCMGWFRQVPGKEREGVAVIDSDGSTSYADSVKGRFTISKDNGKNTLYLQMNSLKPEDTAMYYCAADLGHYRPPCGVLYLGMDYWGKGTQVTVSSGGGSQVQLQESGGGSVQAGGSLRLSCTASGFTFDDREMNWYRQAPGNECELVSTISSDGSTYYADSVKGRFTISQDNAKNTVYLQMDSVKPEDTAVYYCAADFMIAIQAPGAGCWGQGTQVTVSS
pSTAT3 (MFI) in monocytes at 0.0001 µM: 4150
//
binder: hIL10Ra_VHH14-hIL2Rg_VHH19, linker GS, tag his (bispecific antibody, not shown: small tags and cut ends) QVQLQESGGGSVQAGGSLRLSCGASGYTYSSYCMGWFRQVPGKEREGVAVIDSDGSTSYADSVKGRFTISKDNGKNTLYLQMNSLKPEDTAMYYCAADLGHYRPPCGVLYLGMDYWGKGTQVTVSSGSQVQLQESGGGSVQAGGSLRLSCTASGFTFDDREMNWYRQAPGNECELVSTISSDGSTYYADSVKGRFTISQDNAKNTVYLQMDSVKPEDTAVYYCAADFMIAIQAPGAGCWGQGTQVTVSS
pSTAT3 (MFI) in monocytes at 0.0001 µM: 4040
//
binder: hIL10Ra_VHH14-hIL2Rg_VHH19, linker GGGSGGGS, tag his (bispecific antibody, not shown: small tags and cut ends) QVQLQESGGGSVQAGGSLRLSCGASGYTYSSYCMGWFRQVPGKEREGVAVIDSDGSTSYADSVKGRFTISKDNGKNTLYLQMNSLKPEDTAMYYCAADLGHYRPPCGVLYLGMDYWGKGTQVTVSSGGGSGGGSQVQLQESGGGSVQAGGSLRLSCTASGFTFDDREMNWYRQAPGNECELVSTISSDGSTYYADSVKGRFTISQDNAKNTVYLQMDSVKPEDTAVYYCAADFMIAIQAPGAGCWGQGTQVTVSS
pSTAT3 (MFI) in monocytes at 0.0001 µM: 4670

--- query ---
Q: Provide measured pSTAT3 (MFI) in monocytes at 0.0001 µM value, entry: hIL10Ra_VHH14-hIL2Rg_VHH19, no linker, tag his (bispecific antibody, not shown: small tags and cut ends) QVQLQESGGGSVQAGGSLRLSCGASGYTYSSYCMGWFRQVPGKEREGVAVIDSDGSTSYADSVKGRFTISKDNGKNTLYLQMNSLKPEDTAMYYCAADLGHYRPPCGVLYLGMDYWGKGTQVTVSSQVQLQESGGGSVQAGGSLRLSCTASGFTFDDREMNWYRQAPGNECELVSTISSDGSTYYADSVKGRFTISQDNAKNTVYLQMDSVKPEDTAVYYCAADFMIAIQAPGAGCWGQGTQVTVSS
Result: 3970
